- Tested on: mouse red blood cells
- Assay type: cell-based
experimentalReadout: T.I. of G− (therapeutic index, MHC/MICGM)

Ac-PIHRRIPPRWPRLKRRW-NH2 [CAMP-t2, PIHRRIPPRWPRLKRRW] = >5.45 ± 2.54
Ac-RRRWRKRRWWW-NH2 [CAMP-B, RRRWRKRRWWW] = > 10.90±4.0
Ac-RKFLRRRGEVAHFSQKSLGLYCWWW-NH2 [CAMP-t1] = >4.36 ± 1.21

Need T.I. of G− (therapeutic index, MHC/MICGM), item Ac-LRRLKPLIRPWLRPLRRWWW-NH2 [CAMP-A] 8.72±2.41

---

- Test system: mouse red blood cells
- Format: cell-based
- Procedure: The Hemolytic Assay includes the following procedures. […] The supernatant was transferred to a 96-well flat-bottomed polystyrene plate (Thermo Fisher Scientific), and the amount of hemoglobin released into the supernatant was determined by measuring the absorbance with a spectrophotometer at 540 nm. […] Therapeutic index (T.I.) was calculated according to a previously published formula: T.I.=MHC/MICGM. […]
experimentalReadout: T.I. of G+ (therapeutic index, MHC/MICGM)

Solved entries:
Ac-LRRLKPLIRPWLRPLRRWWW-NH2 [CAMP-A] = 6.54±2.01
Ac-RKFLRRRGEVAHFSQKSLGLYCWWW-NH2 [CAMP-t1] = >3.27 ± 2.41
Ac-PIHRRIPPRWPRLKRRW-NH2 [CAMP-t2, PIHRRIPPRWPRLKRRW] = >13.45 ± 4.48

Quick check: T.I. of G+ (therapeutic index, MHC/MICGM) of Ac-RRRWRKRRWWW-NH2 [CAMP-B, RRRWRKRRWWW] ? > 12.36±4.18
